assay overview: qHTS of pediatric cancer cell lines to identify multiple opportunities for drug repurposing: Primary screen for LAN-5 cells (AID 1347100)
cond: LAN-5 neuroblastoma viability, CellTiter-Glo luminescence, 48 h; series mostly up to 46 µM
Protocol: Drug repurposing or repositioning has been offered as a strategy for drug development in oncology programs. […] [1] Shen, M et al. Quantitative high-throughput phenotypic screening of pediatric cancer cell lines identifies multiple opportunities for drug repurposing. […] Cells were assayed in growth media at a density of 500-1,000 cells/well. […] After a 15 min incubation at room temperature, samples were analyzed for luminescence intensity using a ViewLux High-throughput CCD imager equipped with clear filters.
Results filed as inconclusive are left out. Calls of active or inactive are those of the source. Calls come from the whole dose curve; as a rule, active = well fitted cell-killing curve with a large enough effect; inconclusive = small, poorly fitted or top-dose-only effect; inactive = no such curve, though single readings can be large or run the other way.
Could you please pick one outcome from this set? true (1) = active, false (0) = inactive

Example entries begin here.
CCCCCCCCC(=O)NCc1ccc(O)c(OC)c1 | true (1)
CC(C)[N+](C)(CCC(C(N)=O)(c1ccccc1)c1ccccc1)C(C)C | false (0)
C[N+]1(CCC(C(N)=O)(c2ccccc2)c2ccccc2)CCCCC1 | false (0)
C[C@]12CC[C@H]3[C@@H](CCC4=CC(=O)CC[C@@]43C)[C@@H]1CC[C@@H]2C(=O)O | false (0)

Ask: Could you please tell me the result logged for CCCCC1C(=O)NC(=O)N(C2CCCCC2)C1=O (configuration not stated) in this assay?
Result: false (0)

Ask: So what was the verdict on O=C1NCN(c2ccccc2)C12CCN(CCCOc1ccc(F)cc1)CC2 in this test?
Result: false (0)

Ask: Record lookup: outcome of this test for O=C(O)c1nn(Cc2ccc(Cl)cc2Cl)c2ccccc12 ?
Result: false (0)

Ask: Can you look up the reported call for CCN(Cc1ccc(Cl)nc1)/C(=C/[N+](=O)[O-])NC for me?
Result: false (0)

Ask: Hi, do you know how CC1=C2[C@H]3OC(=O)[C@@H](C)[C@@H]3CC[C@@]2(C)C=CC1=O came out in this test?
Result: false (0)

---

assayed system: Phospholipid hydroperoxide glutathione peroxidase GPX4 (Homo sapiens) (UniProt P36969)
Sequence (P36969 whole entry, looked up): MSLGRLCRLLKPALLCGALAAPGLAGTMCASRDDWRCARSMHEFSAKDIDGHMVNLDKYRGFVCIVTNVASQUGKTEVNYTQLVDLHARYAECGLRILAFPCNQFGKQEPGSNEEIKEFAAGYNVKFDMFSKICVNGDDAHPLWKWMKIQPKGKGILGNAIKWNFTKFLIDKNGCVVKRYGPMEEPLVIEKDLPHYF
assay overview: Primary qHTS Assay for Inhibitors of Recombinant Selenoprotein Glutathione Peroxidase 4 (GPX4) (AID 1845192); note: nearly all actives have a fitted effect of over 65% in size
cond: recombinant GPX4, GR-coupled NADPH fluorescence, 15 min; series mostly up to 50 µM
Results filed as inconclusive are left out. Calls of active or inactive are those of the source. Calls come from the whole dose curve; as a rule, active = well fitted inhibition curve with a large enough effect; inconclusive = small, poorly fitted or top-dose-only effect; inactive = flat fitted curve, though single readings scatter.
Can you answer with just one of these options? yes (1) = active, no (0) = inactive

Cc1nnc2n1-c1sc(CCC(=O)N3CCOCC3)cc1C(c1ccccc1Cl)=NC2 | no (0)

Ask: What is the recorded call for this molecule in the test? C[C@H](N)[C@H](O)c1ccc(O)c(O)c1
Result: no (0)

Ask: Any idea what this test logged for CC(CC(C(N)=O)(c1ccccc1)c1ccccc1)N(C)C (configuration not stated) ?
Result: no (0)

Ask: What outcome does the record of this test show for Cc1c(Cl)c(=O)oc2cc(OP(=O)(OCCCl)OCCCl)ccc12 ?
Result: no (0)

Ask: What did the test return for C[C@@H]1CN(C2CCC(C#N)(c3ccc(F)cc3)CC2)CC[C@]1(C(=O)O)c1ccccc1 (some centres not stated) ?
Result: no (0)

Ask: Would you mind telling me which call this test gave O=C(N[C@@H]1N=C(c2ccccc2F)c2cccc3c2N(CC3)C1=O)c1cc2ccccc2[nH]1 ?
Result: no (0)

Ask: Look up the recorded call for COc1ccc(CN2CCNCC2)c(OC)c1OC in this test.
Result: no (0)

Ask: Record request — test call for CC(C)(O)C(Cl)(Cl)Cl
Result: no (0)

Ask: What outcome does the record of this test show for CN(C)C(=S)SSC(=S)N(C)C ?
Result: no (0)
